Every entry's value here was drawn from paper PMC6154603.

# Lookup of reported half-life keyed by entry
Assay Summary: Pharmacokinetics of caffeic acid derivatives after oral administration of the FLJ-FF herb couple
Parameters: species or system rats
Conditions: rat, in vivo
Express your answer as a number followed by its unit.

Examples with answers:
O=C(/C=C/c1ccc(O)c(O)c1)O[C@@H]1C[C@](O)(C(=O)O)C[C@@H](OC(=O)/C=C/c2ccc(O)c(O)c2)[C@H]1O
5.95 h
O=C(C=Cc1ccc(O)c(O)c1)OC1CC(O)(C(=O)O)CC(O)C1OC(=O)C=Cc1ccc(O)c(O)c1 (centres unmarked)
9.18 h
O=C(C=Cc1ccc(O)c(O)c1)OC1CC(O)(C(=O)O)CC(O)C1O (centres unmarked)
3.49 h
O=C(/C=C/c1ccc(O)c(O)c1)O[C@@H]1C[C@](O)(C(=O)O)C[C@@H](O)[C@H]1O
3.9 h

Reported half-life for O=C(C=Cc1ccc(O)c(O)c1)OC1C(O)CC(O)(C(=O)O)CC1O (centres unmarked) : what is it? 4.64 h
